- Measurement target: Aurora A (Homo sapiens, UniProt O14965)
- Construct: cell lysates from Jurkat cells (ATCC TIB-152) used; endogenous in cells
- Sequence (O14965 1-403): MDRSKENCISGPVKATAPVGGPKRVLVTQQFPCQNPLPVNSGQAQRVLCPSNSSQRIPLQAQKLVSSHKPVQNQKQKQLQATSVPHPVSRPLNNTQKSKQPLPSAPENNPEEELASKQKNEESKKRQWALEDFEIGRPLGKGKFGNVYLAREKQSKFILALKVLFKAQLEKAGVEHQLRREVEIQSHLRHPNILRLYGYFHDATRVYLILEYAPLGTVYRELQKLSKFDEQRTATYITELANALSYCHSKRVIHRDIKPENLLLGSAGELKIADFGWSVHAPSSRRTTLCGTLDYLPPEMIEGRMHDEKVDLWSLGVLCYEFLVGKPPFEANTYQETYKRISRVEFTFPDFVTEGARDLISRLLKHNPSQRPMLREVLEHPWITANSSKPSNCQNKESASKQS
- Method description: Kinobeads assay, Aurora A
- Details: lysate of pervanadate-treated Jurkat cells, read-out: Inhibition values (IC50) Aur A
Reported values of IC50 for individual entries

Reference set (6 entries):
O=C1COCCN1c1cc(F)cc(Cn2ncc3cnc(Nc4cn[nH]c4)nc32)c1: 0.1 to 1 µM
Cn1cc(Nc2ncc3cnn(Cc4cc(F)cc(-c5cnn(C)c5)c4)c3n2)cn1: 1 to 10 µM
Cn1cc(Nc2ncc3cnn(Cc4c(F)ccc(N5CCNCC5=O)c4F)c3n2)cn1: < 0.1 µM
O=C(Cn1cc(Nc2ncc3cnn(Cc4cc(F)cc(N5CCOCC5=O)c4)c3n2)cn1)N1CCNCC1: < 0.1 µM
N#CCCn1cc(Nc2ncc3cnn(Cc4cc(F)cc(N5CCOCC5=O)c4)c3n2)cn1: < 0.1 µM
O=C1COCCN1c1cc(F)c(F)c(Cn2ncc3cnc(Nc4cnn(CCO)c4)nc32)c1: 0.1 to 1 µM

For the compound shown here, "Cn1cc(Nc2ncc3cnn(Cc4cc(F)cc(N5CC6(COC6)C5)c4)c3n2)cn1" , give the reported IC50. ≥ 10 µM

Fill in the blank: the reported IC50 of "CNC(=O)CCn1cc(Nc2ncc3cnn(Cc4cccc(N5CCOCC5)c4)c3n2)cn1" is ____. 0.1 to 1 µM

---

- Measurement target: JAK2 (Homo sapiens)
- Construct: endogenous in cells
- Sequence (O60674 whole entry): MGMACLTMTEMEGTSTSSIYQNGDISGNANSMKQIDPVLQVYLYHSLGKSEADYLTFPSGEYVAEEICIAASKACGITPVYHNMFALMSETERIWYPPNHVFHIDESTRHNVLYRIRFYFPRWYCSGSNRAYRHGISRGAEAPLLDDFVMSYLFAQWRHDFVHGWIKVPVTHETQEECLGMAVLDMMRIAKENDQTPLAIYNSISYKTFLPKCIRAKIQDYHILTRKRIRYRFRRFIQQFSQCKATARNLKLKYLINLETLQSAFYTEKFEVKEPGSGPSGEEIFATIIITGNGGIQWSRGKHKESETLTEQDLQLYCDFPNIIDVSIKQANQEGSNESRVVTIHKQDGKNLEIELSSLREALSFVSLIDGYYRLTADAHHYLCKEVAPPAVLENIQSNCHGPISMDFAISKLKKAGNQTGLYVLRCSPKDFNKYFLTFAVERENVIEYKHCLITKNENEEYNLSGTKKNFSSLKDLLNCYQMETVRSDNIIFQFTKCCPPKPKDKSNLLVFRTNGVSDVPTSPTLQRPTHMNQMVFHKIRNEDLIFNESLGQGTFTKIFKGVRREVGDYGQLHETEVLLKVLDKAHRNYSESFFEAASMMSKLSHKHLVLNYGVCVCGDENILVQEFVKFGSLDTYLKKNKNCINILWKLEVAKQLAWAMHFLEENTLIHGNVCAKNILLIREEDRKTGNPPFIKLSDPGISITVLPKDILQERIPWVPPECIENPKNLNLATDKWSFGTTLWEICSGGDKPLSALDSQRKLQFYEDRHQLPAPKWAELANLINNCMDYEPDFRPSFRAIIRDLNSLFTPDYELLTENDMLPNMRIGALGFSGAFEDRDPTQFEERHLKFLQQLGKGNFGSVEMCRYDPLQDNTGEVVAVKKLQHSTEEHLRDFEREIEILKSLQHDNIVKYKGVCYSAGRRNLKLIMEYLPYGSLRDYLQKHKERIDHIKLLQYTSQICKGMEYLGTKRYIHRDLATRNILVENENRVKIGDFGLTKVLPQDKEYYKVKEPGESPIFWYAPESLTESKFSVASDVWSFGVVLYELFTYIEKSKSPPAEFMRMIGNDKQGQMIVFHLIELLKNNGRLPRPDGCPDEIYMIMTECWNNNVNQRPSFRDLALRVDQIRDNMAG
- Method description: Kinobeads assay, JAK2
- Details: mixed Molt4/Ramos lysate, read-out: Inhibition values (IC50) JAK2
IC50 values by entry

Fc1cc(N2CCOCC2)c(F)c(Cn2ncc3cnc(Nc4cnn(CC5CCNC5)c4)nc32)c1F (centres unmarked) [Example 94]: 1000 to 10000 nM
OCCn1cc(Nc2ncc3cnn(Cc4cc(F)cc(N5CCNCC5)c4)c3n2)cn1 [Example 93]: 1000 to 10000 nM
Cn1cc(Nc2ncc3cnn(Cc4cc(-c5cnn(C)c5)cc(F)c4F)c3n2)cn1 [Example 126]: ≥ 10000 nM

Bench note: what IC50 did CNC(=O)Cn1cc(Nc2ncc3cnn(Cc4cc(F)cc(N5CCOCC5=O)c4)c3n2)cn1 [Example 68] show? 1000 to 10000 nM

Could you tell me which IC50 is on file for O=C1COCCN1c1cc(F)cc(Cn2ncc3cnc(Nc4cnn(CC5CCNC5)c4)nc32)c1 (centres unmarked) [Example 101] ? 1000 to 10000 nM

Can you share its IC50? I mean this compound: O=C1CNCCN1c1cccc(Cn2ncc3cnc(Nc4cnn(CCO)c4)nc32)c1F [Example 55] 1000 to 10000 nM

Tell me the measured IC50 of Cn1cc(Nc2ncc3cnn(Cc4c(F)c(F)cc(C(=O)N5CCOCC5)c4F)c3n2)cn1 [Example 110] , please. 100 to 1000 nM

What value of IC50 has been reported for the following compound? Cn1cc(Nc2ncc3cnn(Cc4cccc(N5CCOCC5=O)c4F)c3n2)cn1 [Example 40] 1000 to 10000 nM

---

- Measurement target: Aurora A (Homo sapiens, UniProt O14965)
- Construct: cell lysates from Jurkat cells (ATCC TIB-152) used; endogenous in cells
- Method description: Kinobeads assay, Aurora A
- Details: lysate of pervanadate-treated Jurkat cells, read-out: Inhibition values (IC50) Aur A
Assay readout: IC50

Cn1cc(Nc2ncc3cnn(Cc4cccc(-c5cnn(C)c5)c4F)c3n2)cn1 [Example 123]: 1000 to 10000 nM

State the recorded IC50 for this entry: Cn1cc(Nc2ncc3cnn(Cc4cccc(N5CC6CCC(C5)O6)c4)c3n2)cn1 [Example 26] 100 to 1000 nM

Requested field: IC50. Item: Cn1cc(Nc2ncc3cnn(Cc4cc(F)cc(C(=O)N5CCOCC5)c4)c3n2)cn1 [Example 79] 100 to 1000 nM

// returns reported IC50 for input Cn1cc(Nc2ncc3cnn(Cc4c(F)c(F)cc(N5CCOCC5)c4F)c3n2)cn1 [Example 17] 1000 to 10000 nM

Endpoint output: IC50 of O=C(CCn1cc(Nc2ncc3cnn(Cc4cccc(N5CCOCC5)c4)c3n2)cn1)NC1CC1 [Example 35] . Value? 100 to 1000 nM

---

- Measurement target: Aurora B (Homo sapiens)
- Construct: cell lysates from Jurkat cells (ATCC TIB-152) used; endogenous in cells; host or cells: Jurkat cells (ATCC TIB-152), treated with pervanadate
- Sequence (Q96GD4 whole entry): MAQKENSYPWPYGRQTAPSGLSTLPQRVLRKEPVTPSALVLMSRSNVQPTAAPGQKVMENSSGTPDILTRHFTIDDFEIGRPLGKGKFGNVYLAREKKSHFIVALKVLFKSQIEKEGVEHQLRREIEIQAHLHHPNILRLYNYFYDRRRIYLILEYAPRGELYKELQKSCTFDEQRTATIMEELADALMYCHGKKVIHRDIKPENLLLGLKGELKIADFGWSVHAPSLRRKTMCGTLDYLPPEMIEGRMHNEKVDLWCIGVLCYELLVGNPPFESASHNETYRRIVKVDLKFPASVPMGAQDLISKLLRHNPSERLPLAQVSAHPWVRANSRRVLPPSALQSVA
- Method description: Kinobeads assay, Aurora B
- Format: binding
- Procedure: The compounds of the present invention as described in the previous examples were tested in a Kinobeads™ assay as described for ZAP-70 (WO-A 2007/137867). […] Bound proteins were then eluted and the presence of JAK2 and JAK3 was detected and quantified using specific antibodies in a dot blot procedure and the Odyssey infrared detection system. Dose response curves for individual kinases were generated and IC50 values calculated. […]
Assay readout: JAK3/AurB Fold Selectivity

The examples below pair each entry with its known result.
Cn1cc(Nc2ncc3cnn(Cc4c(F)c(F)cc(C(=O)N5CCOCC5)c4F)c3n2)cn1: 3-10 Fold
Cn1cc(Nc2ncc3cnn(Cc4cc(F)cc(N5CCOCC5=O)c4F)c3n2)cn1: 10-50 Fold
O=C(CCn1cc(Nc2ncc3cnn(Cc4cccc(N5CCOCC5)c4)c3n2)cn1)NC1CC1: 10-50 Fold
OCCn1cc(Nc2ncc3cnn(Cc4cc(F)cc(N5CCOCC5)c4)c3n2)cn1: >50 Fold
O=C(CCn1cc(Nc2ncc3cnn(Cc4cccc(N5CCOCC5)c4)c3n2)cn1)N1CCCCC1: >50 Fold
CNCC1(Cn2cc(Nc3ncc4cnn(Cc5cccc(N6CCOCC6)c5)c4n3)cn2)COC1: 10-50 Fold
O=C1CCCN1CCCn1cc(Nc2ncc3cnn(Cc4cccc(N5CCOCC5)c4)c3n2)cn1: >50 Fold
O=C1COCCN1c1cc(F)cc(Cn2ncc3cnc(Nc4cnn(CCO)c4)nc32)c1: 10-50 Fold

Query (compound): "Cn1cc(Nc2ncc3cnn(Cc4cccc(C(=O)N5CCOCC5)c4F)c3n2)cn1" ; field requested: JAK3/AurB Fold Selectivity >50 Fold

I am curious: what JAK3/AurB Fold Selectivity value has been reported for "Cn1cc(Nc2ncc3cnn(Cc4cccc(N5CC6(COC6)C5)c4F)c3n2)cn1" ? >50 Fold

---

- Measurement target: Aurora B (Homo sapiens)
- Construct: cell lysates from Jurkat cells (ATCC TIB-152) used; endogenous in cells
- Method description: Kinobeads assay, Aurora B
- Details: lysate of pervanadate-treated Jurkat cells, read-out: Inhibition values (IC50) Aur B
- Protocol: The compounds of the present invention as described in the previous examples were tested in a Kinobeads™ assay as described for ZAP-70 (WO-A 2007/137867). […] Bound proteins were then eluted and the presence of JAK2 and JAK3 was detected and quantified using specific antibodies in a dot blot procedure and the Odyssey infrared detection system. Dose response curves for individual kinases were generated and IC50 values calculated. […]
pIC50: −log10 of the molar value.
Overview of reported pIC50 across a group of compounds:

Cn1cc(Nc2ncc3cnn(Cc4cccc(N5CCNCC5)c4F)c3n2)cn1: 6.00 to 7.00
Cn1cc(Nc2ncc3cnn(Cc4cccc(N5CCC6(COC6)C5)c4)c3n2)cn1: 5.00 to 6.00
Cn1cc(Nc2ncc3cnn(Cc4cc(N5CCOCC5=O)cc(F)c4F)c3n2)cn1: 6.00 to 7.00
NCCCn1cc(Nc2ncc3cnn(Cc4cccc(N5CCOCC5)c4)c3n2)cn1: 5.00 to 6.00
CN(C)C(=O)CCn1cc(Nc2ncc3cnn(Cc4cccc(N5CCOCC5)c4)c3n2)cn1: 6.00 to 7.00

Consider the compound shown here: "Cn1cc(Nc2ncc3cnn(Cc4cccc(N5CCS(=O)(=O)CC5)c4)c3n2)cn1" What is its recorded pIC50? 6.00 to 7.00

If you can, please state the reported pIC50 value of "CNC(=O)CCn1cc(Nc2ncc3cnn(Cc4cccc(N5CCOCC5)c4)c3n2)cn1" . 5.00 to 6.00

Entry CC(CN(C)C)Cn1cc(Nc2ncc3cnn(Cc4cccc(N5CCOCC5)c4)c3n2)cn1 (stereo not shown) has what pIC50? 5.00 to 6.00
